# System: IFN-γ production in human peripheral blood mononuclear cells (PBMCs)
# Experiment Description: Experiment 2: IFN-γ production by PHA-stimulated human PBMCs, ELISA
# Assay type: cell-based
# Details: 30 μM, Subject 1, 24 h, PHA 5 μg/ml
Below, each of the compounds is paired with its reported [IFN-γ] value.
Report as a plain number; the unit pg/mL is understood.

{"Record Smiles": "N=c1nc(N)c(-c2cccc(Cl)c2Cl)nn1CC(Cl)(Cl)Cl", "Test System": "IFN-γ production in human peripheral blood mononuclear cells (PBMCs)", "Result Units": "pg/mL", "[IFN-γ]": 0.00}

Query: [IFN-γ]; subject: Nc1nnc(-c2sc(Cl)c(Cl)c2Cl)c(N)n1 53

Now the compound Nc1nnc(-c2cc(C(F)(F)F)cc(C(F)(F)F)c2)c(N)n1 52.0

Same question for Nc1nnc(-c2cccc(Cl)c2Cl)c(N)n1 please. 454
